Organism: Homo sapiens
method: Selectivity index, ratio of inhibition of human recombinant MAO-A at 20 uM or 50 uM to IC50 for human recombinant MAO-B
Each entry below carries its recorded Ratio IC50.

Worked examples, 6 molecules total:
O=C(/C=C/c1ccc(Cl)cc1)c1ccc(O)cc1O	971
CS(=O)(=O)c1ccc(C(=O)/C=C/c2ccc(Cl)cc2)cc1	> 43
O=C(/C=C/c1ccc(Cl)cc1)c1ccc(F)cc1O	> 704
O=C(/C=C/c1ccc(Cl)cc1)c1ccc(O)cc1	> 1610
CC(C)=CCOc1ccc(C(=O)/C=C/c2ccc(Cl)cc2)c(O)c1	> 16
COc1ccc(C(=O)/C=C/c2ccc(Cl)cc2)cc1	> 370

Task item: Need Ratio IC50, item `CC(C)=CCOc1ccc(C(=O)/C=C/c2ccc(C)cc2)c(O)c1`
Reply: > 19

Task item: Next entry: `O=C(/C=C/c1ccc(Cl)cc1)c1ccccc1O`
Reply: > 312

Task item: Next entry: `O=C(/C=C/c1ccc(OCc2ccccc2)cc1)c1ccc(F)cc1`
Reply: > 40

Task item: Next entry: `COc1ccc(C(=O)/C=C/c2ccc(OCc3ccccc3)cc2)cc1`
Reply: > 44

Task item: Next entry: O=C(/C=C/c1ccccc1)c1ccccc1 [CHALCONE]
Reply: > 14

Task item: Next entry: CC(C)=CCOc1ccc(C(=O)/C=C/c2ccccc2)c(O)c1 [CORDOIN]
Reply: > 1.1

###

Each entry below carries its recorded IC50.
measured target: Amine oxidase [flavin-containing] B (Homo sapiens)
Sequence (P27338 whole entry): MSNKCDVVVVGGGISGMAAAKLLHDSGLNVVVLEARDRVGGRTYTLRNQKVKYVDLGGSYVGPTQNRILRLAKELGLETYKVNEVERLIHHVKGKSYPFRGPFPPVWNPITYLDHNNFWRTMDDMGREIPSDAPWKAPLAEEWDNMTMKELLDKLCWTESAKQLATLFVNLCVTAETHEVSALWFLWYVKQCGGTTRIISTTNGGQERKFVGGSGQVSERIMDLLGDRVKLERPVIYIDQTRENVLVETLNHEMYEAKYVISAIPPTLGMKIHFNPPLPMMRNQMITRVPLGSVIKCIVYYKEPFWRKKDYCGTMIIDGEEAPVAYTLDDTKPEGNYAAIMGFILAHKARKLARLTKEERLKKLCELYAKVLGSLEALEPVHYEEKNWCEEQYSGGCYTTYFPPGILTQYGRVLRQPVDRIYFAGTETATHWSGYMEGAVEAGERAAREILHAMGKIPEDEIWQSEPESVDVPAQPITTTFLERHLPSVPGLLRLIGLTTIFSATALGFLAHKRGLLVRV
Number only, in nM; omit the unit.

CC(C)=CCOc1ccc(C(=O)/C=C/c2ccc(C)cc2)c(O)c1	1030
COc1ccc(C(=O)/C=C/c2ccc(OCc3ccccc3)cc2)cc1	450
O=C(/C=C/c1ccc(Cl)cc1)c1ccc(F)cc1O	71

Task item: Enter reported IC50 observed with Amine oxidase [flavin-containing] B (Homo sapiens) for `COc1ccc(C(=O)/C=C/c2ccc(Cl)cc2)cc1`
Reply: 54

###

measured target: Amine oxidase [flavin-containing] A (Homo sapiens, UniProt P21397)
Sequence (P21397 whole entry): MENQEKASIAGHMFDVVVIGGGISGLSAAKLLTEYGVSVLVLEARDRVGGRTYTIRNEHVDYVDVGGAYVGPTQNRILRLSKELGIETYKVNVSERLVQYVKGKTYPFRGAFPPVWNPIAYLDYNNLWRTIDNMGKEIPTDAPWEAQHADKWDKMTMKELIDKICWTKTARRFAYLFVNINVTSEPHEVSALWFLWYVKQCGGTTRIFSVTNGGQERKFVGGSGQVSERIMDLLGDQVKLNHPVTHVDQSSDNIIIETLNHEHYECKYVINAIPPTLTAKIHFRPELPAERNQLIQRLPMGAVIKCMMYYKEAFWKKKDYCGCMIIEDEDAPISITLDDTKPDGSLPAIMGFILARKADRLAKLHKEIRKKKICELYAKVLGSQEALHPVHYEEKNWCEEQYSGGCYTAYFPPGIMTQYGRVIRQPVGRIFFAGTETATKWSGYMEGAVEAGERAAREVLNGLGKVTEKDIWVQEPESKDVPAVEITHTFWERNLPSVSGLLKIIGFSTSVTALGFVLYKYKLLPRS
method: Inhibition of human recombinant MAO-A assessed as hydrogen peroxide production
measure: IC50 (µM)
Number only, in µM; omit the unit.

Task item: Need IC50, item `O=C(/C=C/c1ccc(Cl)cc1)c1ccc(O)cc1O`
Reply: 4.95

Origin of measurements: ChEMBL document CHEMBL1138489
